Measured Concentration of FLNA-Binding Compound as Agonist 1 μM + BFNA, listed per entry for reference.
# Tested on: mu opiate receptor (MOR)
# Assay details: MOR agonist activity using [35S]GTPγS binding assay in striatal membranes
# Format: biochemical
# Measurement conditions: Series C-1; 1 μM compound + 1 μM β-FNA
Readout name: Concentration of FLNA-Binding Compound as Agonist 1 μM + BFNA

| Molecule | Obs value |
| --- | --- |
| CS(=O)(=O)c1ccc(S(=O)(=O)N2CCC3(CC2)OCCN3S(=O)(=O)c2ccc(S(C)(=O)=O)cc2)cc1 | 26.4% |
| O=S(=O)(c1ccc(Oc2ccccc2)cc1)N1CCC2(CC1)OCCN2S(=O)(=O)c1ccc(Oc2ccccc2)cc1 [Compound C0149M] | 93.4% |
| O=S(=O)(c1ccc(Br)cc1Br)N1CCC2(CC1)OCCN2S(=O)(=O)c1ccc(Br)cc1Br | 114.2% |
| COc1cccc(S(=O)(=O)N2CCC3(CC2)OCCN3S(=O)(=O)c2cccc(OC)c2)c1 | 3.9% |
| COc1ccc(NC(=O)N2CCC3(CC2)OCCN3S(=O)(=O)c2ccc(OC)cc2)cc1 | 95.5% |
| Cc1ccc(S(=O)(=O)N2CCC3(CC2)OCCN3S(=O)(=O)c2ccc(C)cc2)cc1 | 33.9% |
| Cc1cccc(S(=O)(=O)N2CCC3(CC2)OCCN3S(=O)(=O)c2cccc(C)c2)c1 | 76.3% |
| CC(=O)c1ccc(S(=O)(=O)N2CCC3(CC2)OCCN3S(=O)(=O)c2ccc(C(C)=O)cc2)cc1 | 19.0% |
| CC(=O)c1ccc(S(=O)(=O)N2CCC3(CC2)NC(=O)C(Cc2cnc[nH]2)N3S(=O)(=O)c2ccc(C(C)=O)cc2)cc1 (centres unmarked) [Compound C0084M] | 133.2% |
| N#Cc1ccc(S(=O)(=O)N2CCC3(CC2)OCCN3S(=O)(=O)c2ccc(C#N)cc2)cc1 | 2.8% |
| COc1ccc(C(=O)N2CCC3(CC2)OCCN3C(=O)c2ccc(OC)cc2)cc1 | 94.1% |
| CC(=O)c1ccc(C(=O)N2CCC3(CC2)OCCN3C(=O)c2ccc(C(C)=O)cc2)cc1 | 43.5% |
| COc1ccc(S(=O)(=O)N2CCC3(OCCN3S(=O)(=O)c3ccc(OC)cc3)C3CCCCC32)cc1 (centres unmarked) [Compound C0144M] | 125.9% |
| CNc1ccc(S(=O)(=O)N2CCC3(CC2)OCCN3S(=O)(=O)c2ccc(NC)cc2)cc1 | 59.3% |
| O=C1CN(Cc2ccccc2)C2(CCN(S(=O)(=O)c3cc(Cl)cc(Cl)c3O)CC2)N1 [Compound C0138M] | 51.5% |
| CC(O)c1ccc(S(=O)(=O)N2CCC3(CC2)OCCN3S(=O)(=O)c2ccc(C(C)O)cc2)cc1 (centres unmarked) | 55.9% |
| O=S(=O)(c1ccc2ccccc2c1)N1CCC2(CC1)OCCN2S(=O)(=O)c1ccc2ccccc2c1 [Compound C0140M] | 83.0% |
| CC(=O)Nc1ccc(S(=O)(=O)N2CCC3(CC2)OCCN3S(=O)(=O)c2ccc(NC(C)=O)cc2)cc1 | 39.6% |
| COc1ccc(NC(=O)N2CCC3(CC2)OCCN3C(=O)Nc2ccc(OC)cc2)cc1 [Compound C0151M] | 212.8% |
| O=C(c1ccc([N+](=O)[O-])cc1)N1CCC2(CC1)OCCN2S(=O)(=O)c1ccc([N+](=O)[O-])cc1 [Compound C0033] | 76.6% |
